These measurements were taken from patent US9408899B2.

ASSAY SYSTEM: HLA-A*0203 (Homo sapiens, UniProt P04439, A173T/D140Y/D185E/D98H/E277Q/G131W/G231S/I119V/I121R/I166T/I218V/L180W/L300P/L318F/N151K/N90K/P208A/P217A/Q86G/Q94H/R138H/R169H/T345S)
PROCEDURE TEXT: MHC-peptide binding assay
pKd: −log10 of the molar value. No end group written: not given here.
OBSERVED PROPERTY: pKd

Endpoint output: pKd of FLSLSLLVI [SAG2C38-46] . Value? 6.30 to 7.30

----------
ASSAY SYSTEM: HLA-A*0301 (Homo sapiens)
PROCEDURE TEXT: MHC-peptide binding assay
ASSAY SETUP: MHC binding affinity; IC50 approximates Kd; unit inferred
No end group written: not given here.
OBSERVED PROPERTY: IC50

Check out these entries, answers already filled in.
STFWPCLLR | 0.022 µM
AVVSLLRLLK | 0.017 µM

Turning to the following sequence.
Look up IC50 with HLA-A*0301 (Homo sapiens) for this sequence: SSAYVFSVK 0.012 µM

----------
ASSAY SYSTEM: HLA-A*1101 (Homo sapiens, UniProt P04439, A114D/D185E/E176A/F33Y/L180Q/S129P/T187R)
PROCEDURE TEXT: MHC-peptide binding assay
ASSAY SETUP: MHC binding affinity, Table 2b; IC50 approximates Kd; unit inferred; read-out: HLA-A*1101
No end group written: not given here.
OBSERVED PROPERTY: IC50
Could you kindly put the unit after your number?

Endpoint output: IC50 of STFWPCLLR . Value? 10 nM

----------
ASSAY SYSTEM: HLA-A*3101 (Homo sapiens, UniProt P04439, A270S/D185E/E176V/E277Q/F33T/G231S/G80R/H175R/I121M/I218V/I322F/K168Q/L300P/L318F/M331R/P217A/Q94H/R138Q/T323A/T345S/T97I/V358M)
PROCEDURE TEXT: MHC-peptide binding assay
ASSAY SETUP: MHC binding affinity; IC50 approximates Kd; unit inferred
No end group written: not given here.
OBSERVED PROPERTY: pIC50
Formally, pIC50 is defined as -log10 of the concentration c, with c in mol/L.

Check out these entries, answers already filled in.
STFWPCLLR | 8.92
SSAYVFSVK | 7.01

Turning to the following sequence.
Endpoint output: pIC50 of AVVSLLRLLK . Value? 5.89

----------
Reported log10(IC50) by item:
ASSAY SYSTEM: HLA-A*0201 (Homo sapiens, UniProt P04439, D140Y/D185E/D98H/E176V/E277Q/G131W/G231S/I119V/I121R/I166T/I218V/L300P/L318F/N151K/N90K/P208A/P217A/Q86G/Q94H/R138H/R169H/T345S)
PROCEDURE TEXT: MHC-peptide binding assay (inhibition of binding of radiolabeled standard peptide)
ASSAY SETUP: MHC binding assay; measured IC50 approximates Kd; no unit in table, text b40 speaks of nM; read-out: Affinity (c) HLA-A*0201
No end group written: not given here.
All values: log10 IC50 [nM].

Check out these entries, answers already filled in.
GLAAAVVAV [SPA82-90] | 0.98
FVIFACNFV [SAG2X44-52] | 1.53
ITMGSLFFV [SPA12-20] | -0.80

Endpoint output: log10(IC50) of FMIVSISLV [SAG2X351-359] . Value? 1.20

Endpoint output: log10(IC50) of FLLGLLVHV [SAG3375-383] . Value? 0.81

Endpoint output: log10(IC50) of FLTDYIPGA [SAG3136-144] . Value? -0.15

Endpoint output: log10(IC50) of FLSLSLLVI [SAG2C38-46] . Value? 2.87

Endpoint output: log10(IC50) of FMIAFISCFA [SAG2D180-189] . Value? 1.51

----------
ASSAY SYSTEM: HLA-A*0202 (Homo sapiens, UniProt P04439, D140Y/D185E/D98H/E176V/E277Q/G131W/G231S/I119L/I121R/I166T/I218V/L180W/L300P/L318F/N151K/N90K/P208A/P217A/Q67R/Q86G/Q94H/R138H/R169H/T345S)
PROCEDURE TEXT: biochemical
No end group written: not given here.
OBSERVED PROPERTY: Kd

Endpoint output: Kd of FLSLSLLVI [SAG2C38-46] . Value? 50 to 500 nM

----------
ASSAY SYSTEM: HLA-A*6801 (Homo sapiens, UniProt P04439, A269V/D185E/E176V/E277Q/E87N/F33Y/G231S/I121M/I166T/I218V/L180W/L300P/L318F/N151K/P208A/P217A/Q86R/R169H/T345S)
PROCEDURE TEXT: MHC-peptide binding assay
ASSAY SETUP: MHC binding affinity; IC50 approximates Kd; unit inferred
No end group written: not given here.
OBSERVED PROPERTY: IC50

Check out these entries, answers already filled in.
STFWPCLLR | 0.97 nM
AVVSLLRLLK | 94 nM

Endpoint output: IC50 of SSAYVFSVK . Value? 2.1 nM

----------
ASSAY SYSTEM: HLA-A*0201 (Homo sapiens, UniProt P04439, D140Y/D185E/D98H/E176V/E277Q/G131W/G231S/I119V/I121R/I166T/I218V/L300P/L318F/N151K/N90K/P208A/P217A/Q86G/Q94H/R138H/R169H/T345S)
PROCEDURE TEXT: MHC-peptide binding assay (inhibition of binding of radiolabeled standard peptide)
pKd: −log10 of the molar value. No end group written: not given here.
OBSERVED PROPERTY: pKd

Endpoint output: pKd of FLSLSLLVI [SAG2C38-46] . Value? < 7.30

----------
ASSAY SYSTEM: HLA-A*1101 (Homo sapiens, UniProt P04439, A114D/D185E/E176A/F33Y/L180Q/S129P/T187R)
PROCEDURE TEXT: MHC-peptide binding assay
ASSAY SETUP: Table 3, MHC binding assay; unit inferred; read-out: Affinity^b HLA-A*1101
No end group written: not given here.
OBSERVED PROPERTY: IC50 (nM)
Give just the numeric value; nM need not be written.

AVVSLLRLLK | 34

Turning to the following sequence.
Endpoint output: IC50 of SSAYVFSVK . Value? 10
